# PROTOCOL DETAILS: compound binding in COS7 lysate, probe aLAP1, primary screen, cell lysate, small-molecule microarray (AID 1124);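 also: lysate comes from COS7 cells expressing LAP1 and is applied at 0.3 µg/mL; score merges spot fluorescence near 667 nm with signal-to-noise over triplicate slides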
# CONDITIONS USED: probe aLAP1, fluorescence, higher = more signal
# if value of composite z-score reaches 0.3, tag satisfied; if it stays below, tag not satisfied

Prompt: Assess whether reported composite z-score for `CCCCCCC#C[Si](O[C@H](c1ccccc1)c1cn([C@H](CO)Cc2ccccc2)nn1)(C(C)C)C(C)C` sits at 0.3 or higher.
Completion: not satisfied

Prompt: Assess whether reported composite z-score for O=C1NC(=O)C2C1C=CC(C(O)c1ccccc1)N2Nc1ccc(Cl)cc1Cl (centres undefined) sits at 0.3 or higher.
Completion: satisfied

Prompt: Assess whether reported composite z-score for CN1C(=O)C2C=CC(C(O)c3ccc(I)cc3)N(N3CCCCC3)C2C1=O (centres undefined) sits at 0.3 or higher.
Completion: satisfied

Prompt: Assess whether reported composite z-score for `O=C(NCc1ccc(F)cc1)[C@H]1C[C@H]2C(=O)N[C@@H](Cc3ccccc3)C(=O)N2[C@H]1c1ccc(O)cc1` sits at 0.3 or higher.
Completion: not satisfied

Prompt: Assess whether reported composite z-score for `CCCN1C(=O)[C@]2(CCS(=O)(=O)c3ccccc3)N=C(c3ccc(OCCCO)cc3)O[C@@H]2c2ccccc21` sits at 0.3 or higher.
Completion: not satisfied

Prompt: Assess whether reported composite z-score for `COCCOC(=O)N1C(=O)[C@@]2(c3cc(C#CCCO)ccc31)[C@H](C(=O)N1CCc3cc(OC)c(OC)cc3C1)[C@H]1C(=O)O[C@H](c3ccccc3)[C@H](c3ccccc3)N1[C@@H]2c1ccc(O)cc1` sits at 0.3 or higher.
Completion: not satisfied

Prompt: Assess whether reported composite z-score for CC(C)C[C@H]1NC(=O)[C@@]23C(=O)N[C@@H](Cc4ccccc4)C2[C@H](C)[C@@]2(C)O[C@H]2C3/C=C/C/C=C\CNC(=O)[C@H](Cc2ccccc2)NC1=O (some centres undefined) sits at 0.3 or higher.
Completion: not satisfied

Prompt: Assess whether reported composite z-score for CCC(CC)C(O)C1C=CC2C(=O)N(C)C(=O)C2N1Nc1ccccc1 (centres undefined) sits at 0.3 or higher.
Completion: satisfied

Prompt: Assess whether reported composite z-score for `COc1ccc(C(=O)Nc2ccc(CN3C(=O)[C@@]4(O[C@@H](CCn5cc([C@H](O)c6ccccc6)nn5)[C@H]([Si](C)(C)c5ccc(OC)cc5)[C@H]4C)c4ccccc43)cc2)cc1` sits at 0.3 or higher.
Completion: not satisfied

Prompt: Assess whether reported composite z-score for `[N-]=[N+]=NCc1ccccc1C[C@]1(C(=O)N2CCOCC2)N=C(c2ccc(OCCCO)cc2)O[C@H]1c1ccccc1N=[N+]=[N-]` sits at 0.3 or higher.
Completion: satisfied

Prompt: Assess whether reported composite z-score for `CN(C)C(=O)[C@]1(Cc2ccccc2CN=[N+]=[N-])N=C(c2ccc(OCCCO)cc2)O[C@@H]1c1ccccc1CN=[N+]=[N-]` sits at 0.3 or higher.
Completion: satisfied

Prompt: Assess whether reported composite z-score for CCOC(=O)C1=CCC(c2ccc(C)cc2)N(S(=O)(=O)c2ccc(C)cc2)C1 (centres undefined) sits at 0.3 or higher.
Completion: not satisfied

Prompt: Assess whether reported composite z-score for `C=CCNC(=O)[C@H]1[C@@H]2C(=O)O[C@@H](c3ccccc3)[C@@H](c3ccccc3)N2[C@@H](c2ccc(OCCO)cc2)[C@]12C(=O)N(C(=O)OCCOC)c1ccccc12` sits at 0.3 or higher.
Completion: satisfied

Prompt: Assess whether reported composite z-score for `C=CCNC(=O)[C@@H]1[C@H]2C(=O)O[C@H](c3ccccc3)[C@H](c3ccccc3)N2[C@H](c2ccccc2OCCO)[C@@]12C(=O)N(C(=O)OCCOC)c1ccc(C#CCNC(N)=O)cc12` sits at 0.3 or higher.
Completion: satisfied

Reference source: PubChem BioAssay
